# procedure text: qHTS assay for identifying genotoxic compounds that show differential cytotoxicity against isogenic chicken DT40 cell lines with known DNA damage response pathways - wild type cell line (AID 743012); also: nearly all actives have a fitted effect of over 60% in size
# condition description: DT40 wild type chicken cells viability, CellTiter-Glo, 40 h; series mostly up to 68.4 µM
Results filed as inconclusive are left out. Active and inactive are the calls of the source. Calls follow the shape of the dose curve; as a rule, active = well fitted cell-killing curve with a large enough effect in the repeat runs; inconclusive = weak or mixed curves, or effect the other way; inactive = no such curve, though single readings can be large or run the other way.
Form entry, call: pick from active, inactive

Answered cases to consult:
Inquiry: Called result for COc1cc(NS(=O)(=O)c2ccc(N)cc2)nc(C)n1
Reply text: inactive

Inquiry: Called result for CCC(CO)(CO)CO
Reply text: inactive

Inquiry: Called result for C=CCOC(=O)COCCC(C)C
Reply text: inactive

Inquiry: Called result for CC(=O)c1ccc[nH]1
Reply text: inactive

Inquiry: Called result for ClC1=C(Cl)C1(Cl)Cl
Reply text: inactive

Inquiry: Called result for CNS(=O)(=O)c1cc(C(=O)N2CCC(CCN3C4CCC3CC(n3c(C)nc5ccccc53)C4)(c3cccc(F)c3)CC2)c(Cl)cc1F (stereo not drawn)
Reply text: active

Inquiry: Called result for CCCCC[C@H](O)/C=C/[C@H]1[C@H](O)CC(=O)[C@@H]1C/C=C\CCCC(=O)O
Reply text: inactive

Inquiry: Called result for CCN(Cc1cccc(S(=O)(=O)O)c1)c1ccc(C(=C2C=CC(=[N+](CC)Cc3cccc(S(=O)(=O)O)c3)C=C2)c2ccc(O)cc2S(=O)(=O)[O-])cc1
Reply text: active

Inquiry: Called result for FC(F)(F)C(F)(F)C(F)(F)C(F)(F)CCI
Reply text: inactive

Inquiry: Called result for CC(C)C1CCC(C(=O)N[C@H](Cc2ccccc2)C(=O)O)CC1 (stereo partly drawn)
Reply text: inactive

---
Inquiry: Called result for Cc1ccc(Cl)cc1N
Reply text: inactive

Inquiry: Called result for CC(=O)OCC(C)C
Reply text: inactive

Inquiry: Called result for CCCCCCCC(=O)OCCCCCC
Reply text: inactive

Inquiry: Called result for Cc1ccc(N(CCO)CCO)cc1
Reply text: inactive

Inquiry: Called result for CC(=O)N[C@@H](Cc1ccc(O)cc1)C(=O)O
Reply text: inactive

Inquiry: Called result for CCCCCCCC(=O)Oc1c(Br)cc(C#N)cc1Br
Reply text: inactive

Inquiry: Called result for C[C@@H]1[C@H](O)[C@@H](C)/C=C/C=C\C=C\C=C\C=C\C=C\C=C\[C@H](O[C@@H]2O[C@H](C)[C@@H](O)[C@H](N)[C@@H]2O)C[C@@H]2O[C@](O)(C[C@@H](O)C[C@@H](O)[C@H](O)CC[C@@H](O)C[C@@H](O)CC(=O)O[C@H]1C)C[C@H](O)[C@H]2C(=O)O (stereo in doubt)
Reply text: inactive

Inquiry: Called result for CC[C@@H](CO)NCCN[C@@H](CC)CO
Reply text: inactive

Inquiry: Called result for O=C(O)CO
Reply text: inactive

Inquiry: Called result for CN1CCCN(C(c2ccccc2)c2ccc(Cl)cc2)CC1 (stereo not drawn)
Reply text: active

Inquiry: Called result for CCN(CC)C(=O)/C(C#N)=C/c1cc(O)c(O)c([N+](=O)[O-])c1
Reply text: inactive

Inquiry: Called result for Nc1ccc(S(=O)(=O)NCc2ccccc2)cc1
Reply text: inactive

Inquiry: Called result for CC(C)C(O)C(C)(C)CO (stereo not drawn)
Reply text: inactive

====

# assayed system: Nuclear receptor subfamily 1 group I member 2 (Homo sapiens)
# procedure text: CYP3A4 induction through human pregnane X receptor (PXR) by small molecules, qHTS assay (AID 1346984); also: nearly all actives have a fitted effect of over 40% in size
# condition description: DPX-2 HepG2 PXR, CYP3A4-luciferin luminescence, 24 h; series mostly up to 46.1 µM
Results filed as inconclusive are left out. Active and inactive are the calls of the source. The call rests on the fitted dose curve; in most records, active means well fitted activation curve with a large enough effect in the repeat runs; inconclusive means weak or mixed curves; inactive means no such curve, though single readings can be large or run the other way.
Form entry, call: pick from true (active), false (inactive)

Inquiry: Called result for COc1ccc(CCN(C)CCCN2CCc3cc(OC)c(OC)cc3CC2=O)cc1OC
Reply text: false

Inquiry: Called result for CC(C)(C)NCC(O)COc1cccc2c1C[C@H](O)[C@H](O)C2 (some centres undefined)
Reply text: false

Inquiry: Called result for CCN(CC)C(=O)/C(C#N)=C/c1cc(O)c(O)c([N+](=O)[O-])c1
Reply text: false

Inquiry: Called result for COc1ccc(-c2cc(C(F)F)nn2-c2ccc(S(N)(=O)=O)cc2)cc1F
Reply text: false

Inquiry: Called result for O=C1CC[C@@H](C(=O)O)N1
Reply text: false

---
Inquiry: Called result for CCN(CC)CCOc1ccccc1C(=O)CCc1ccccc1
Reply text: true

Inquiry: Called result for O=C(Nc1ccc(C(=O)O)c(O)c1)c1ccccc1
Reply text: false

Inquiry: Called result for CC[C@@H](CO)NCCN[C@@H](CC)CO
Reply text: false

Inquiry: Called result for CC[C@H]1OC(=O)[C@H](C)[C@@H](O[C@H]2C[C@@](C)(OC)[C@@H](O)[C@H](C)O2)[C@H](C)[C@@H](O[C@@H]2O[C@H](C)C[C@H](N(C)C)[C@H]2O)[C@](C)(O)C[C@@H](C)/C(=N\OCOCCOC)[C@H](C)[C@@H](O)[C@]1(C)O
Reply text: false

====

# procedure text: qHTS assay for small molecule agonists of the antioxidant response element (ARE) signaling pathway (AID 743202)
# condition description: HepG2 ARE-bla reporter, beta-lactamase FRET, 16 h; series mostly up to 73.3 µM
Inconclusive results are not listed. The source made the active and inactive calls. The call rests on the fitted dose curve; in most records, active means well fitted activation curve with a large enough effect in the signal ratio in the repeat runs (not every such curve was filed as active); inconclusive means weak or mixed curves, or effect the other way; inactive means no such curve, though single readings can be large or run the other way; the % refers to the signal ratio.
Form entry, call: pick from Yes for active, No for inactive

Inquiry: Called result for N[C@@H](Cc1cc(I)c(O)c(I)c1)C(=O)O
Reply text: No

---
Inquiry: Called result for CC(=O)N[C@@H](Cc1ccc(O)cc1)C(=O)O
Reply text: No

====

# assayed system: Estrogen receptor (Homo sapiens) (UniProt P03372)
# Sequence (P03372 whole entry, looked up): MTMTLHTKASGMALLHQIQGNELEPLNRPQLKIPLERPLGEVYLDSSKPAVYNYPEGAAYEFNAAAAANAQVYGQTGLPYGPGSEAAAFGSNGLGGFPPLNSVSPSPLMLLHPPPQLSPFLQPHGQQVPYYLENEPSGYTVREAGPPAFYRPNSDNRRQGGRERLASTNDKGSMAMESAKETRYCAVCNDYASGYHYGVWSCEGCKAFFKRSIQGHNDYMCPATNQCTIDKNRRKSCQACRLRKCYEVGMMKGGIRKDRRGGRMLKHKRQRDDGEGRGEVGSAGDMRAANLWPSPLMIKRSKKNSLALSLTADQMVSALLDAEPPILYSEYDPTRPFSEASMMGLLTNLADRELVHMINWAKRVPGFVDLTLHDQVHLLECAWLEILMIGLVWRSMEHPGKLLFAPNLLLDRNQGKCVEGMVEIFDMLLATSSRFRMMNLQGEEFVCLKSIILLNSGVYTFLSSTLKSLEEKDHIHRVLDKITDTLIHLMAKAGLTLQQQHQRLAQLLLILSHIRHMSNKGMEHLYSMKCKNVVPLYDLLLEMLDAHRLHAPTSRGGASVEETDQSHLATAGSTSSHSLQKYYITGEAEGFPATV
# procedure text: qHTS assay to identify small molecule antagonists of the estrogen receptor alpha (ER-alpha) signaling pathway (AID 743069)
# condition description: HEK293 ER-alpha-UAS-bla, beta-lactamase ratio, antagonist mode; series mostly up to 69.4 µM
Inconclusive results are not listed. Activity calls are given as the source filed them. Calls come from the whole dose curve; as a rule, active = well fitted curve in the direction sought with a large enough effect in the signal ratio in the repeat runs (not every such curve was filed as active); inconclusive = weak or mixed curves, or effect the other way; inactive = no such curve, though single readings can be large or run the other way; the % refers to the signal ratio.
property label: activity, negative = inhibition

Inquiry: Determine its reported activity, negative = inhibition: O=c1[nH][nH]c(=O)c2cc([N+](=O)[O-])ccc12
Reply text: inactive

Inquiry: Determine its reported activity, negative = inhibition: CC(=O)NNC(C)=O
Reply text: inactive

Inquiry: Determine its reported activity, negative = inhibition: CC(C)N(C)C
Reply text: inactive

====

# assayed system: Estrogen receptor (Homo sapiens) (UniProt P03372)
# procedure text: qHTS assay to identify small molecule antagonists of the estrogen receptor alpha (ER-alpha) signaling pathway using the BG1 cell line in the presence of 0.1 nM 17-beta-estradiol (AID 1259244); also: nearly all actives have a fitted effect of over 50% in size
# condition description: VM7Luc4E2 (BG1) ERE-luciferase, antagonist mode, 0.1 nM E2, 22 h; series mostly up to 92.4 µM
Records with an inconclusive call do not appear. Active and inactive are the calls of the source. Calls come from the whole dose curve; as a rule, active = well fitted inhibition curve with a large enough effect in the repeat runs; inconclusive = weak or mixed curves; inactive = no such curve, though single readings can be large or run the other way.
Form entry, call: pick from TRUE (active), FALSE (inactive)

Inquiry: Called result for CN1C(CSCC(F)(F)F)Nc2cc(Cl)c(S(N)(=O)=O)cc2S1(=O)=O (stereo unspecified)
Reply text: FALSE

Inquiry: Called result for O=C1[C@@H]2[C@H]3CC[C@H](C3)[C@@H]2C(=O)N1CCCCN1CCN(c2ncccn2)CC1
Reply text: FALSE

Inquiry: Called result for Cc1ccc(N(CC2=NCCN2)c2cccc(O)c2)cc1
Reply text: FALSE

Inquiry: Called result for C[C@@H]1C[C@H]2[C@@H]3CCC4=CC(=O)C=C[C@]4(C)[C@@]3(F)[C@@H](O)C[C@]2(C)[C@@]1(O)C(=O)COP(=O)(O)O
Reply text: FALSE

Inquiry: Called result for C=Cc1ccc(OC(C)=O)cc1
Reply text: FALSE

Inquiry: Called result for Cc1oc(=O)oc1COC(=O)[C@@H]1N2C(=O)[C@@H](NC(=O)[C@H](N)c3ccccc3)[C@H]2SC1(C)C
Reply text: FALSE

---
Inquiry: Called result for O=C(NC(Cc1cc(=O)[nH]c2ccccc12)C(=O)O)c1ccc(Cl)cc1 (stereo unspecified)
Reply text: FALSE

Inquiry: Called result for O=C(C(=O)c1ccco1)c1ccco1
Reply text: FALSE

Inquiry: Called result for O=c1[nH][nH]c(=O)c2cc([N+](=O)[O-])ccc12
Reply text: FALSE

Inquiry: Called result for CC(=O)Oc1cccc(O)c1
Reply text: FALSE

Inquiry: Called result for NC(=O)CCCCC(N)=O
Reply text: FALSE

Inquiry: Called result for FC(F)(F)C(F)(F)C(F)(F)C(F)(F)CCI
Reply text: FALSE

Inquiry: Called result for CCCCCCCCCCCC(=O)OCC(O)CO (stereo unspecified)
Reply text: FALSE

Inquiry: Called result for CC(C)c1ccc(C(=O)N=C(N)N)cc1S(C)(=O)=O
Reply text: FALSE

Inquiry: Called result for CCCCCCC(O)CCOC(C)=O (stereo unspecified)
Reply text: FALSE

Inquiry: Called result for CCCCCCCCCCCSCC(=O)O
Reply text: TRUE

Inquiry: Called result for NC(=O)c1ccccc1[N+](=O)[O-]
Reply text: FALSE

Inquiry: Called result for CCOC(=O)C(C)O (stereo unspecified)
Reply text: FALSE

Inquiry: Called result for Nc1ccc(N=Nc2ccc(N)cc2)cc1
Reply text: FALSE

Inquiry: Called result for CC(C)C(=O)OCCOc1ccccc1
Reply text: FALSE

Inquiry: Called result for CC1=C2[C@@H]([C@H](C)CC[C@H]2/C=C(\C)C(=O)O)[C@H](O)C1
Reply text: FALSE

Sourced from PubChem BioAssay (Tox21)
